Source: ChEMBL document CHEMBL3259581

- testedSystem: Prostaglandin G/H synthase 2 (Ovis aries)
- Sequence (whole entry): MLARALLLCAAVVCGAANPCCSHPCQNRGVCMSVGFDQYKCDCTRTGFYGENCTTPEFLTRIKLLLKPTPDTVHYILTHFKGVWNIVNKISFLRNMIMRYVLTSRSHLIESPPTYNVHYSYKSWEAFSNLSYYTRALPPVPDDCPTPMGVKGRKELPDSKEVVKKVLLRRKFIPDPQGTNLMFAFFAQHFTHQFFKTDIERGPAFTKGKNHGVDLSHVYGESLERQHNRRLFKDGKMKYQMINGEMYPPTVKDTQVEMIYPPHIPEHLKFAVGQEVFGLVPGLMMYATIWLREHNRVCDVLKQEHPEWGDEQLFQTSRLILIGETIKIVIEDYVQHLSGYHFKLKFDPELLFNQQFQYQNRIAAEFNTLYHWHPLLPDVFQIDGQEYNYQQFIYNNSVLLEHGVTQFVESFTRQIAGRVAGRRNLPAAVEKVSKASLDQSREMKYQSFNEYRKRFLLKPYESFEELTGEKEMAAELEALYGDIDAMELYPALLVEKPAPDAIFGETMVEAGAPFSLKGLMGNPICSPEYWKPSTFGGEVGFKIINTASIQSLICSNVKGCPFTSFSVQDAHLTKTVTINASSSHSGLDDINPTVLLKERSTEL
- measurementParameters: 30 uM
- Description: Inhibition of ovine COX2 using arachidonic acid as substrate at 30 uM preincubated for 10 mins before substrate addition measured after 5 mins by EIA
experimentalReadout: inhibition (%)
A number alone suffices; assume %.

Known results for compounds:
[[record]]
compound = "Cc1cc(O)c2c(c1)C(=O)c1cccc(O)c1C2=O [CHRYSOPHANOL]"
experimentalreadout = "inhibition"
resultnumber = 42.1

[[record]]
compound = "CCCCOc1c(C(C)=O)c(C)cc2cccc(O)c12"
experimentalreadout = "inhibition"
resultnumber = 37.9

[[record]]
compound = "CC(=O)c1c(C)cc2cccc(OCc3cccc(Cl)c3)c2c1O"
experimentalreadout = "inhibition"
resultnumber = 82.1


input: Give its inhibition value. Item: COCOc1cccc2cc(C)c(C(C)=O)c(O)c12
output: 75

* * *

Measured inhibition in vivo at 150 µmol/kg, listed per entry for reference.
- Test system: Rattus norvegicus
- experimentSummary: Antiinflammatory activity in Sprague-Dawley rat assessed as inhibition of carrageenan-induced paw edema at 150 umol/kg, po administered 1 hr before carrageenan challenge measured after 3 hrs
- Assay type: functional
A number alone suffices; assume %.

[[record]]
compound = "CC(=O)c1c(C)cc2cccc(OCc3ccccc3)c2c1O"
unitlabel = "%"
resultnumber = 30.3


input: Give its inhibition in vivo at 150 µmol/kg value. Item: CC(C)Cc1ccc(C(C)C(=O)O)cc1 (stereo not drawn) [IBUPROFEN]
output: 32.3

input: Give its inhibition in vivo at 150 µmol/kg value. Item: Cc1cc(OCc2ccc(I)cc2)c2c(c1)C(=O)c1cccc(OCc3ccc(I)cc3)c1C2=O
output: 36.1

* * *

- testedSystem: Prostaglandin G/H synthase 2 (Ovis aries)
- measurementParameters: 30 uM
Measured inhibition, listed per entry for reference.
A number alone suffices; assume %.

Known results for compounds:
[[record]]
substancesmiles = "CCCOc1cccc2c1C(=O)c1c(OCCC)cc(C)cc1C2=O"
experimentalreadout = "inhibition"
unitlabel = "%"
resultnumber = 58.7

[[record]]
substancesmiles = "COc1cccc2c1C(=O)c1c(OC)cc(C)cc1C2=O"
experimentalreadout = "inhibition"
unitlabel = "%"
resultnumber = 62.1

[[record]]
substancesmiles = "CC(=O)c1c(C)cc2cccc(O)c2c1OC(C)C"
experimentalreadout = "inhibition"
unitlabel = "%"
resultnumber = 54.9

[[record]]
substancesmiles = "CC(=O)c1c(C)cc2cccc(O)c2c1OCc1ccccc1Br"
experimentalreadout = "inhibition"
unitlabel = "%"
resultnumber = 67.5

[[record]]
substancesmiles = "C=CCOc1cccc2c1C(=O)c1c(OCC=C)cc(C)cc1C2=O"
experimentalreadout = "inhibition"
unitlabel = "%"
resultnumber = 81.5


input: Give its inhibition value. Item: CCCCOc1cccc2cc(C)c(C(C)=O)c(O)c12
output: 31.9

input: Give its inhibition value. Item: CCOc1cccc2c1C(=O)c1c(OCC)cc(C)cc1C2=O
output: 55.5

input: Give its inhibition value. Item: Cc1cc(OCc2cccc(Cl)c2)c2c(c1)C(=O)c1cccc(OCc3cccc(Cl)c3)c1C2=O
output: 61

input: Give its inhibition value. Item: CCCOc1cccc2cc(C)c(C(C)=O)c(O)c12
output: 35.4

input: Give its inhibition value. Item: CC(=O)c1c(C)cc2cccc(OC(C)C)c2c1O
output: 62.6
